test system: HEK-293T; experiment: Incucyte cell viability with HEK293T; format: toxicity, cell-based; conditions: human, 0 h, 10 µM, compound concentration 10 uM, replicate number 1, timepoint 0 hours; further: unitless GR value; below 1 slowed growth and below 0 cell loss
Hi there, I'd appreciate the recorded Growth Rate for every entry that follows.
Just the number, please, no unit attached.

Ask | Look up Growth Rate for this compound: CCN(Cc1ccncc1)C(=O)C(CO)c1ccccc1 (stereo not given) [TROPICAMIDE]
Reply | 0.72

Ask | Look up Growth Rate for this compound: CCC(=O)NC[C@@H]1C[C@H]1c1cccc2c1CCO2 [TASIMELTEON]
Reply | 0.74

Ask | Using the record for COc1ccc2nc3ccc(OC)cc3c(SCCCN)c2c1.Cl , report its Growth Rate.
Reply | -0.05

Ask | Reported Growth Rate, compound CCCn1c(=O)c2[nH]c(C3CCCC3)nc2n(CCC)c1=O : ____
Reply | 0.58

Ask | Which Growth Rate value is on record for CCCN1CCO[C@H]2c3cc(O)ccc3OC[C@@H]21.Cl ?
Reply | 0.72

Ask | Would you kindly share the measured Growth Rate for O=C1NC(=O)C(c2ccccc2[N+](=O)[O-])=C1Nc1ccc(O)c(Cl)c1 ?
Reply | 0.17

Ask | Look up Growth Rate: C[C@H]1CN(C[C@H](Cc2ccccc2)C(=O)NCC(=O)O)CC[C@@]1(C)c1cccc(O)c1 [ALVIMOPAN]
Reply | 0.62

Ask | Which Growth Rate is listed for CCCN(CCc1cccs1)[C@H]1CCc2c(O)cccc2C1 [ROTIGOTINE] ?
Reply | 0.77

Ask | I have this compound here, Cc1cc(CN)cc(C)c1-c1ncn(C)c1-c1cncn1C , and I need its recorded Growth Rate.
Reply | 0.03

Ask | Field request: Growth Rate | item: CCOC(=O)Nc1cc(-c2ccc(C)c(NS(C)(=O)=O)c2)nn2c(C)nnc12
Reply | 0.65
